For each record, write down the corresponding CC50.
Assay: Toxic dose that reduced by 50% the number of cells with respect to untreated controls.
Assay type: toxicity, cell-based
Details: chlorocebus sabaeus, Vero cells; read-out: TD50 (the source's name)
Answers are plain numbers, in µg/mL.

Worked set:
{"compound": "CCOC(=O)/C=C/c1cc(C(=O)c2ccc(F)cc2)cn1C", "value.unit": "µg/mL", "reported": 15}
{"compound": "CCOC(=O)/C=C/c1cc(C(=O)c2ccc(N(C)C)cc2)cn1C", "value.unit": "µg/mL", "reported": 4}
{"compound": "CCOC(=O)/C=C/c1cc(C(=O)c2ccccc2)cn1C", "value.unit": "µg/mL", "reported": 4}

Now take the following compound into account.
Task: I'd like to know its CC50. The compound in question is "Cn1cc(C(=O)c2ccccc2)cc1/C=C/C(=O)NO"
Result: 30

---

Test system: unidentified adenovirus
Assay: Effective dose required for antiviral activity against adeno virus
Type: functional
Details: read-out: ED50 (the source's name)
readout.type: EC50 (µg/mL)
Give bare numbers, in µg/mL.

Worked set:
{"compound": "COc1ccc(C(=O)c2cc(/C=C/C(=O)O)n(C)c2)cc1", "readout.type": "EC50", "value.unit": "µg/mL", "reported": 250}
{"compound": "CCOC(=O)/C=C/c1cc(C(=O)c2ccc(F)cc2)cn1C", "readout.type": "EC50", "value.unit": "µg/mL", "reported": 50}
{"compound": "Cn1cc(C(=O)c2ccc([N+](=O)[O-])cc2)cc1/C=C/C(=O)NO", "readout.type": "EC50", "value.unit": "µg/mL", "reported": 25}
{"compound": "Cc1ccc(C(=O)c2ccn(/C=C/C(=O)O)c2)cc1", "readout.type": "EC50", "value.unit": "µg/mL", "reported": 60}

Field: EC50. Fill in for each record below.
1. CCOC(=O)/C=C/c1cc(C(=O)c2ccc(Cl)cc2)cn1C
2. Cn1cc(C(=O)c2ccc([N+](=O)[O-])cc2)cc1/C=C/C(=O)O
3. Cn1cc(C(=O)c2ccc(N)cc2)cc1/C=C/C(=O)O
4. CCOC(=O)/C=C/c1cc(C(=O)c2ccc(OC)cc2)cn1C
5. CCOC(=O)/C=C/c1cc(C(=O)c2ccc(-n3ccnc3)cc2)cn1C
6. Cn1cc(C(=O)c2ccc(F)cc2)cc1/C=C/C(=O)O
7. CCOC(=O)/C=C/c1cc(C(=O)c2ccc(N(C)C)cc2)cn1C

Result:
[30, 50, 1000, 4, 15, 50, 15]

---

Experiment: Toxic dose that reduced by 50% the number of cells with respect to untreated controls.
Type: toxicity, cell-based
Conditions: chlorocebus sabaeus, Vero cells; read-out: TD50 (the source's name)
readout.type: CC50 (µg/mL)
Answers are plain numbers, in µg/mL.

Worked set:
{"compound": "Cn1cc(C(=O)c2ccc([N+](=O)[O-])cc2)cc1/C=C/C(=O)NO", "reported": 30}
{"compound": "CCOC(=O)/C=C/c1cc(C(=O)c2ccc(Cl)cc2)cn1C", "reported": 500}
{"compound": "Cn1cc(C(=O)c2ccc(F)cc2)cc1/C=C/C(=O)O", "reported": 60}
{"compound": "CCOC(=O)/C=C/c1cc(C(=O)c2ccc(OC)cc2)cn1C", "reported": 15}
{"compound": "Cn1cc(C(=O)c2ccc(Cl)cc2)cc1/C=C/C(=O)O", "reported": 125}
{"compound": "Cn1cc(C(=O)c2ccc([N+](=O)[O-])cc2)cc1/C=C/C(=O)O", "reported": 60}
{"compound": "CCOC(=O)/C=C/c1cc(C(=O)c2ccc([N+](=O)[O-])cc2)cn1C", "reported": 8}
{"compound": "Cn1cc(C(=O)c2ccc(F)cc2)cc1/C=C/C(=O)NO", "reported": 15}
{"compound": "CCOC(=O)/C=C/c1cc(C(=O)c2ccc(-n3ccnc3)cc2)cn1C", "reported": 30}
{"compound": "Nc1nc2c(ncn2COCCO)c(=O)[nH]1", "reported": 240}

Field: CC50. Fill in for each record below.
1. Cc1ccc(C(=O)c2ccn(/C=C/C(=O)O)c2)cc1
2. Cn1cc(C(=O)c2ccc(Cl)cc2)cc1/C=C/C(=O)NO
3. Nc1ncnc2c1ncn2[C@@H]1O[C@H](CO)[C@@H](O)[C@@H]1O

Result:
[125, 30, 10]

---

Tested on: Vaccinia virus
Assay: Effective dose required for antiviral activity against Vaccinia virus
Format: functional
Conditions: Orthopoxvirus vaccinia; read-out: ED50 (the source's name)
Note to self: EC50 under 20 µg/mL means 1, ties and anything higher get 0.

Observe how each entry below is paired with its result.
{"compound": "Cn1cc(C(=O)c2ccc(N)cc2)cc1/C=C/C(=O)O", "answer.label": 0}
{"compound": "CCOC(=O)/C=C/c1cc(C(=O)c2ccc(N(C)C)cc2)cn1C", "answer.label": 1}
{"compound": "Cn1cc(C(=O)c2ccc(-n3ccnc3)cc2)cc1/C=C/C(=O)O", "answer.label": 0}
{"compound": "Cn1cc(C(=O)c2ccc([N+](=O)[O-])cc2)cc1/C=C/C(=O)O", "answer.label": 1}
{"compound": "CCOC(=O)/C=C/c1cc(C(=O)c2ccccc2)cn1C", "answer.label": 0}

Consider the record given below.
Task: Take the compound "CN(C)c1ccc(C(=O)c2cc(/C=C/C(=O)O)n(C)c2)cc1" and say whether its EC50 is less than 20 µg/mL.
Result: 0

---

System: Vero
Assay: Maximum nontoxic dose that allow exponential cell growth for three cell cycles
Assay type: functional, Chlorocebus sabaeus
readout.type: MNTD (µg/mL)
Answers are plain numbers, in µg/mL.

Field: MNTD. Fill in for each record below.
1. CCOC(=O)/C=C/c1cc(C(=O)c2ccc(Cl)cc2)cn1C
2. Nc1nc2c(ncn2COCCO)c(=O)[nH]1
3. Cn1cc(C(=O)c2ccccc2)cc1/C=C/C(=O)NO
4. CCOC(=O)/C=C/c1cc(C(=O)c2ccc(-n3ccnc3)cc2)cn1C
5. CCOC(=O)/C=C/c1cc(C(=O)c2ccccc2)cn1C

Result:
1. 250
2. 40
3. 15
4. 15
5. 2

---

System: unidentified adenovirus
Assay: Effective dose required for antiviral activity against adeno virus
Format: functional
Settings: read-out: ED50 (the source's name)
For each record, write down the corresponding EC50.

Worked set:
{"compound": "Cn1cc(C(=O)c2ccc(F)cc2)cc1/C=C/C(=O)NO", "readout.type": "EC50", "reported": "> 50 µg/mL"}
{"compound": "Cn1cc(C(=O)c2ccc(Cl)cc2)cc1/C=C/C(=O)O", "readout.type": "EC50", "reported": "> 500 µg/mL"}
{"compound": "Cn1cc(C(=O)c2ccccc2)cc1/C=C/C(=O)NO", "readout.type": "EC50", "reported": "> 30 µg/mL"}
{"compound": "Cn1cc(C(=O)c2ccccc2)cc1/C=C/C(=O)O", "readout.type": "EC50", "reported": "250 µg/mL"}
{"compound": "Cn1cc(C(=O)c2ccc(Cl)cc2)cc1/C=C/C(=O)NO", "readout.type": "EC50", "reported": "15 µg/mL"}

Field: EC50. Fill in for each record below.
1. CCOC(=O)/C=C/c1cc(C(=O)c2ccccc2)cn1C
2. CN(C)c1ccc(C(=O)c2cc(/C=C/C(=O)O)n(C)c2)cc1
3. Cn1cc(C(=O)c2ccc(-n3ccnc3)cc2)cc1/C=C/C(=O)O

Result:
1: 30 µg/mL; 2: 125 µg/mL; 3: 250 µg/mL

---

For each record, write down the corresponding CC50.
Assay: Toxic dose that reduced by 50% the number of cells with respect to untreated controls.
Type: toxicity, cell-based
Settings: chlorocebus sabaeus, Vero cells; read-out: TD50 (the source's name)

{"compound": "Cn1cc(C(=O)c2ccc(N)cc2)cc1/C=C/C(=O)O", "readout.type": "CC50", "reported": "> 1000 µg/mL"}
{"compound": "COc1ccc(C(=O)c2cc(/C=C/C(=O)O)n(C)c2)cc1", "readout.type": "CC50", "reported": "> 500 µg/mL"}

Task: I'd like to know its CC50. The compound in question is "CN(C)c1ccc(C(=O)c2cc(/C=C/C(=O)O)n(C)c2)cc1"
Result: > 250 µg/mL

---

Test system: Vaccinia virus
Assay: Effective dose required for antiviral activity against Vaccinia virus
Type: functional
Conditions: Orthopoxvirus vaccinia; read-out: ED50 (the source's name)
readout.type: EC50 (µg/mL)
One number for each entry, in µg/mL.

Worked set:
{"compound": "COc1ccc(C(=O)c2cc(/C=C/C(=O)O)n(C)c2)cc1", "readout.type": "EC50", "reported": 500}
{"compound": "CCOC(=O)/C=C/c1cc(C(=O)c2ccc(F)cc2)cn1C", "readout.type": "EC50", "reported": 10}
{"compound": "Cn1cc(C(=O)c2ccc([N+](=O)[O-])cc2)cc1/C=C/C(=O)NO", "readout.type": "EC50", "reported": 15}
{"compound": "Cc1ccc(C(=O)c2ccn(/C=C/C(=O)O)c2)cc1", "readout.type": "EC50", "reported": 100}
{"compound": "CCOC(=O)/C=C/c1cc(C(=O)c2ccc(Cl)cc2)cn1C", "readout.type": "EC50", "reported": 500}
{"compound": "CCOC(=O)/C=C/c1cc(C(=O)c2ccc(OC)cc2)cn1C", "readout.type": "EC50", "reported": 20}

Field: EC50. Fill in for each record below.
1. Cn1cc(C(=O)c2ccc(F)cc2)cc1/C=C/C(=O)O
2. Cn1cc(C(=O)c2ccc(Cl)cc2)cc1/C=C/C(=O)O
3. CCOC(=O)/C=C/c1cc(C(=O)c2ccc([N+](=O)[O-])cc2)cn1C
4. Cn1cc(C(=O)c2ccc(F)cc2)cc1/C=C/C(=O)NO
5. Nc1ncnc2c1ncn2[C@@H]1O[C@H](CO)[C@@H](O)[C@@H]1O
6. Cn1cc(C(=O)c2ccc(Cl)cc2)cc1/C=C/C(=O)NO

Result:
100
100
60
15
16
30

Cited source for all entries: ChEMBL document CHEMBL1124988
